Data origin, for the record: the supplement of paper PMC9233669

System: biotinyl-Phe-oxazolone
PROCEDURE_SUMMARY: self-aminoacylation, catalytic enhancement (BFO) (fold over background); higher = more active; k-Seq, kA / k0A0; sequences stand for … in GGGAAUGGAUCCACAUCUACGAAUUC…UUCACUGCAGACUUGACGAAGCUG
This sample holds only a part of the variants without activity.
ASSAY_ENDPOINT: self-aminoacylation
Give bare numbers.

Check out these entries, answers already filled in.
# CHAIN_SEQUENCE, self-aminoacylation
records = [
    ("AAUACCCUGGUCAUCGAGUGC [Fam2.1 aminoacylation ribozyme variant]", 3.36),
    ("AUUACCCAGGUCAGCGAGUGA [Fam2.1 aminoacylation ribozyme variant]", 34.2),
    ("CUUCACCUAGGUCCUCGGGUG [Fam2.2 aminoacylation ribozyme variant]", 34.1),
    ("AUUCACCUAGUUGAUCGGGUG [Fam2.2 aminoacylation ribozyme variant]", 23.9),
]

Let us examine a further case.
Looking up AGUCACCUAGGUCAUGGGGUG [Fam2.2 aminoacylation ribozyme variant] , I see its self-aminoacylation listed as 29.2

====

Please respond with reported self-aminoacylation for every item in the list.
System: biotinyl-Phe-oxazolone
PROCEDURE_SUMMARY: self-aminoacylation, catalytic enhancement (BFO) (fold over background); higher = more active; k-Seq, kA / k0A0; sequences stand for … in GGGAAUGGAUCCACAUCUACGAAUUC…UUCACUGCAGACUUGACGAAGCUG
Fewer inactive variants are shown than the library holds.
Numbers only.

# CHAIN_SEQUENCE, ASSAY_TARGET, MEASURED_NUMBER
records = [
    ("AGGUCUGCUAAUAGUCGCAAG [Fam3.1 aminoacylation ribozyme variant]", "biotinyl-Phe-oxazolone", 37),
    ("AAGUUUAUUAAUAGUCGCAAG [Fam3.1 aminoacylation ribozyme variant]", "biotinyl-Phe-oxazolone", 2.49),
    ("AUUACCCUGGUCGGCGAGUGA [Fam2.1 aminoacylation ribozyme variant]", "biotinyl-Phe-oxazolone", 53.6),
    ("CUUCUUCAACCAAUCGGUCUG [Fam1A.1 aminoacylation ribozyme variant]", "biotinyl-Phe-oxazolone", 9.05),
    ("UAGUUUUCUAAUAGUCGCAAG [Fam3.1 aminoacylation ribozyme variant]", "biotinyl-Phe-oxazolone", 1.6),
    ("UUACUUCAAACAAUCGGACUG [Fam1A.1 aminoacylation ribozyme variant]", "biotinyl-Phe-oxazolone", 7.94),
    ("AAGUUUACUAAUUGUCGCAAG [Fam3.1 aminoacylation ribozyme variant]", "biotinyl-Phe-oxazolone", 2.6),
    ("AUAACGCUGGUCAUCGAGUGA [Fam2.1 aminoacylation ribozyme variant]", "biotinyl-Phe-oxazolone", 15),
]

Let us examine a further case.
Looking up UUACUUCAAACAAUCGGUAUG [Fam1A.1 aminoacylation ribozyme variant] , I see its self-aminoacylation listed as 12.4

====

Please respond with reported self-aminoacylation for every item in the list.
System: biotinyl-Val-oxazolone
PROCEDURE_SUMMARY: self-aminoacylation, catalytic enhancement (BVO) (fold over background); higher = more active; k-Seq, kA / k0A0; sequences stand for … in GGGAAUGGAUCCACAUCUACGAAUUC…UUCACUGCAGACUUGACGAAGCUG
Variants at the floor of the assay were thinned out.
Answers are plain numbers.

Check out these entries, answers already filled in.
# CHAIN_SEQUENCE, ASSAY_ENDPOINT, MEASURED_NUMBER
measured = [
    ("AAGUUUUCUAAUAGUAGCAAG [Fam3.1 aminoacylation ribozyme variant]", "self-aminoacylation", 1.34),
    ("AUUACCCUGGUCAUCCAGGGA [Fam2.1 aminoacylation ribozyme variant]", "self-aminoacylation", 1.67),
    ("AUUACCUUGGUCAUCGAGUUA [Fam2.1 aminoacylation ribozyme variant]", "self-aminoacylation", 1.03),
]

Dear colleague, could you send me self-aminoacylation for each of the items below? Thanks.
1. CCACCCUUCAAACAAUCGGUC [Fam1B.1 aminoacylation ribozyme variant]
2. AAGUUCGCUAAUAGUGGCAAG [Fam3.1 aminoacylation ribozyme variant]

Output:
[1.86, 0.56]

Dear colleague, could you send me self-aminoacylation for each of the items below? Thanks.
1. CCACACUUCAAGGACUCGGUC [Fam1B.1 aminoacylation ribozyme variant]
2. CCACUUCAAACAAUCGGUCUA [Fam1A.1 aminoacylation ribozyme variant]

Output:
1. 1.24
2. 0.99

Dear colleague, could you send me self-aminoacylation for each of the items below? Thanks.
1. AUUCACCUAGGUAAUCGGCUG [Fam2.2 aminoacylation ribozyme variant]
2. CCACCCUUCAGGCAAUCGGUC [Fam1B.1 aminoacylation ribozyme variant]
3. AUUAUCCUAGGUCAUCGGGUG [Fam2.2 aminoacylation ribozyme variant]
4. AUUUUUGCUAAUAGUCGCAAG [Fam3.1 aminoacylation ribozyme variant]

Output:
1: 1.02; 2: 2.12; 3: 5.98; 4: 1.02
